# credit: paper PMC4738175

- assayed_system: sEH (Homo sapiens, UniProt P34913)
- Sequence (P34913 whole entry, species assumed): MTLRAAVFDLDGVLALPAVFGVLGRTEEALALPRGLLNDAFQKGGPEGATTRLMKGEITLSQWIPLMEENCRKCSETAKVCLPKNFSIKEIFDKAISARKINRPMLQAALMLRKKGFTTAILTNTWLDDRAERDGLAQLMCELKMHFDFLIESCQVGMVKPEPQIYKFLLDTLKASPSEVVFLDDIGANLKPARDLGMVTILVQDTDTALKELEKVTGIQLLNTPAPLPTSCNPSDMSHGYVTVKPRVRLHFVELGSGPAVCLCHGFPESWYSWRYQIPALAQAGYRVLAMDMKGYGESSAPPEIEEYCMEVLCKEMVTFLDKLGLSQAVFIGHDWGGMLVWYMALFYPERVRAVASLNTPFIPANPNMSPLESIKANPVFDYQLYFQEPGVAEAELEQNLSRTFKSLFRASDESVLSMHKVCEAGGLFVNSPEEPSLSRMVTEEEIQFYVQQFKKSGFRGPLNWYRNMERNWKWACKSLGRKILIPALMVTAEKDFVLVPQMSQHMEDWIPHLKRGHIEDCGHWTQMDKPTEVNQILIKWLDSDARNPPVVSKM
measurement_kind: pIC50
# pIC50: negative log10 of molar concentration; output just the value

Look up sEH (Homo sapiens, UniProt P34913) data: pIC50 of `CNC(=O)c1cc(O[C@H]2CC[C@@H](NC(=O)Nc3ccc(Cl)c(C(F)(F)F)c3)CC2)ccn1` , then report it.
9.30

---

- experimental_protocol: in vivo
- condition_label: male, Swiss Webster, mouse, po, 1 mg/kg
measurement_kind: Tmax (h)
Just the number in h, nothing appended.

Provide one value: measured Tmax of CNC(=O)c1cc(Oc2ccc(NC(=O)Nc3ccc(Cl)c(C(F)(F)F)c3)cc2)ccn1 [Sorafenib, reference compound]
2

---

- experimental_protocol: in vivo
- condition_label: male, Swiss Webster, mouse, po, 1 mg/kg
measurement_kind: half-life (h)
Just the number in h, nothing appended.

CNC(=O)c1cc(O[C@H]2CC[C@H](NC(=O)Nc3ccc(Cl)c(C(F)(F)F)c3)CC2)ccn1    2.2

Kindly consider the entry below.
Provide one value: measured half-life of CNC(=O)c1cc(Oc2ccc(NC(=O)Nc3ccc(Cl)c(C(F)(F)F)c3)cc2)ccn1 [Sorafenib, reference compound]
1.5
